B1: CCDC6 (parent)
chain: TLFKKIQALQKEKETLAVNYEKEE

- Variants of: B1
- METHOD NOTES: protein stability index of a GFP-peptide fusion (GPS, HEK-293T) (PSI 1-6); higher = more stable;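 further: lentivirally expressed fusions sorted by FACS into six bins by GFP to DsRed ratio, PSI derived from sequencing read proportions per bin multiplied by bin number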
- CONDITION NOTES: c terminus: a fixed tail appended
EXPERIMENTAL READOUT: protein stability index
One number for each entry.

Below, 10 variants whose answers are already recorded.
T1D	4.01
K22G	3.39
K4M	2.8
T1F	2.64
L9W	3.5
L16N	3.6
V18A	2.95
A17W	2.16
A17Q	3.04
K13D	3.96

Can you give me protein stability index for all of these, one by one?
1. E24V
2. Q7K
3. F3C
4. E23S
5. K22H
6. Y20P
7. N19Q

2.25
3.31
3.62
2.89
3.15
3.21
3.08

These entries and their values trace back to the supplement of paper PMC10567573.
